# test.target: BRD9 (Homo sapiens)
# Sequence (Q9H8M2 whole entry): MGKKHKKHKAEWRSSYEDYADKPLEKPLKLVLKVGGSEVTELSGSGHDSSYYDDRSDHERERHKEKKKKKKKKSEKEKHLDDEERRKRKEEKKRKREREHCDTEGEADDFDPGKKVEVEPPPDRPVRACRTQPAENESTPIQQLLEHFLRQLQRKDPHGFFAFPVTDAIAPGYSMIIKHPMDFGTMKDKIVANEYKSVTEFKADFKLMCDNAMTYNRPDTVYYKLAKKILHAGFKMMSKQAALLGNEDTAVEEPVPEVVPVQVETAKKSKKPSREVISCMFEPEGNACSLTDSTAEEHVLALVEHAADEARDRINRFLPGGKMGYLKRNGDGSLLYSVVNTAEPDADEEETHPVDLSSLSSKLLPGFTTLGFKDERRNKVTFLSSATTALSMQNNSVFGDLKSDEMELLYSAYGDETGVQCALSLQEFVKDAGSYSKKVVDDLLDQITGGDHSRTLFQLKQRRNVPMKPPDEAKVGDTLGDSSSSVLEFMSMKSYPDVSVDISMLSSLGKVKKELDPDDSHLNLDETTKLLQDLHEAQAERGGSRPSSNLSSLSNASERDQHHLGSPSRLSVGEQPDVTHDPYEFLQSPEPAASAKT
# protocol.summary: Degradation of BRD9 (IF), immunofluorescence in MV4-11 cells, 24 hours (Assay Protocol 2)
# Type: cell-based
# Set-up: A suspension of MV4-11 cells (ATCC CRL-9591) was prepared; host or cells: MV4-11
# experimental.conditions: MV4-11, Assay protocol 2; BRD9 degradation; read-out: Dmax
Each entry below lists one item and its recorded Dmax value.

See these solved cases before continuing.
molecule: COc1cc(-c2cn(C)c(=O)c(C)c2C)cc(OC)c1CN1CCN(Cc2cccc3c2CCN(C(=O)/C(C#N)=C/C2(C)CCOCC2)C3C)C2(CC2)C1 (mixture of isomers)
recorded.value: > 75%
//
molecule: COc1cc(-c2cn(C)c(=O)c(C)c2C)cc(OC)c1CN1CCN(Cc2cccc3c2CCN(C(=O)/C(C#N)=C/C2CCOCC2)C3C)C2(CC2)C1 (mixture of isomers)
recorded.value: > 75%

Fill in: Dmax of COc1cc(-c2cn(C)c(=O)c(C)c2C)cc(OC)c1CN1CCN(Cc2cccc3c2CCN(C(=O)/C(C#N)=C/c2cccc(Br)n2)C3C(C)C)CC1 (mixture of isomers) is ___ 70 to 75%

Hello, the source for this data is patent US20260092061A1, in case you need it.
